# maps each entry to its self-cleavage
B1: HDV Ribozyme (parent)
chain: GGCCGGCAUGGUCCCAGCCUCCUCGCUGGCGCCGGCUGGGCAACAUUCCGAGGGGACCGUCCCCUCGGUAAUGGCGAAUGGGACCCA

- Variants of: B1
- experiment_summary: self-cleavage, relative activity (ratio to wild type); higher = more cleavage; co-transcriptional
Answer field: number only, no words.

Below: 2 variants and their reported self-cleavage.
In [3]: df
Out[3]:
   variant_id  assay_readout  readout_value
0   G10U C36A  self-cleavage          0.067
1   C61A C75A  self-cleavage          0.136

Note to self: self-cleavage recorded for G6A G76U was 0.881

Note to self: self-cleavage recorded for A8C G53U was 0.831

Note to self: self-cleavage recorded for U23C G73C was 0.269

Note to self: self-cleavage recorded for G52C U60A was 1.02

Note to self: self-cleavage recorded for C30A A87U was 0.537

Note to self: self-cleavage recorded for C19U G82A was 0.0511

Note to self: self-cleavage recorded for C62G was 0.695

Note to self: self-cleavage recorded for G28C A56C was 0

Note to self: self-cleavage recorded for C24A G34C was 0.0852

Note to self: self-cleavage recorded for U46A C58U was 0.482

Note to self: self-cleavage recorded for U65A G68U was 0.87

Note to self: self-cleavage recorded for A78C G81C was 0.0665

Note to self: self-cleavage recorded for G35U U46A was 0.116

Note to self: self-cleavage recorded for G25A G52C was 0.174

Note to self: self-cleavage recorded for C48A A77G was 0.601

Note to self: self-cleavage recorded for U20G A43G was 0.104

Note to self: self-cleavage recorded for G38A C49A was 0.172

Note to self: self-cleavage recorded for G39C G40U was 0.487

Note to self: self-cleavage recorded for C41U U60A was 0.815

Sourced from the RNAGym collection of RNA variant scans (doi:10.7554/elife.80360)
